PROCEDURE_TEXT: in vivo
Design: species or system Beagle Dogs
CONDITION: female, beagle, dog, po, 10 mg/kg, AUClast of EX-1/NHC/CH2018
EXPERIMENTAL_READOUT: AUC(0-t) (ng·h/mL)
Output spec: scalar in ng·h/mL, unitless text.

Field AUC(0-t) (entry O=c1nc(NO)ccn1[C@@H]1O[C@H](CO)[C@@H](O)[C@H]1O ) reads 7220

###

PROCEDURE_TEXT: in vivo
Parameters: species or system Beagle Dogs
CONDITION: male, Beagle, dog, po, 20 mg/kg, AUClast of EX-2/CH2101
EXPERIMENTAL_READOUT: AUC(0-t)
Please make sure the unit comes right after the number.

Field AUC(0-t) (entry CC(=O)ONc1ccn([C@@H]2O[C@H](CO)[C@@H](O)[C@H]2O)c(=O)n1 ) reads 5.32 ng·h/mL

###

PROCEDURE_TEXT: in vivo
Design: species or system Beagle Dogs
CONDITION: both sexes, beagle, dog, po, 10 mg/kg, Cmax of EX-2/CH2101
EXPERIMENTAL_READOUT: Cmax (ng/mL)
Output spec: scalar in ng/mL, unitless text.

Field Cmax (entry CC(=O)ONc1ccn([C@@H]2O[C@H](CO)[C@@H](O)[C@H]2O)c(=O)n1 [EX-2] ) reads 15.5

###

PROCEDURE_TEXT: in vivo
Set-up: species or system Beagle Dogs
CONDITION: male, beagle, dog, po, 20 mg/kg, Plasma concentration of EX-2/CH2101
EXPERIMENTAL_READOUT: concentration at 0.083 hr

Field concentration at 0.083 hr (entry CC(=O)ONc1ccn([C@@H]2O[C@H](CO)[C@@H](O)[C@H]2O)c(=O)n1 ) reads 11.2 ng/mL

###

PROCEDURE_TEXT: in vivo
Parameters: species or system Beagle Dogs
CONDITION: both sexes, beagle, dog, po, 22 mg/kg, Plasma concentration of CH2107 (Molnupiravir)
EXPERIMENTAL_READOUT: concentration at 0.25 hr

Field concentration at 0.25 hr (entry CC(C)C(=O)OC[C@H]1O[C@@H](n2ccc(NO)nc2=O)[C@H](O)[C@@H]1O ) reads 1300 ng/mL

###

PROCEDURE_TEXT: in vivo
Parameters: species or system Beagle Dogs
CONDITION: female, beagle, dog, po, 20 mg/kg, Plasma concentration of EX-2/CH2101
EXPERIMENTAL_READOUT: concentration at 0.25 hr (ng/mL)
Output spec: scalar in ng/mL, unitless text.

Field concentration at 0.25 hr (entry CC(=O)ONc1ccn([C@@H]2O[C@H](CO)[C@@H](O)[C@H]2O)c(=O)n1 ) reads 13

###

PROCEDURE_TEXT: in vivo
Parameters: species or system Beagle Dogs
CONDITION: both sexes, beagle, dog, po, 10 mg/kg, T1/2 of EX-1/NHC/CH2018
EXPERIMENTAL_READOUT: half-life (h)
Output spec: scalar in h, unitless text.

Field half-life (entry O=c1nc(NO)ccn1[C@@H]1O[C@H](CO)[C@@H](O)[C@H]1O ) reads 3.79

###

PROCEDURE_TEXT: in vivo
Set-up: species or system Beagle Dogs
CONDITION: both sexes, beagle, dog, po, 10 mg/kg, AUClast of EX-1/NHC/CH2018
EXPERIMENTAL_READOUT: AUC(0-t) (ng·h/mL)
Output spec: scalar in ng·h/mL, unitless text.

Field AUC(0-t) (entry O=c1nc(NO)ccn1[C@@H]1O[C@H](CO)[C@@H](O)[C@H]1O ) reads 9580

###

PROCEDURE_TEXT: in vivo
Set-up: species or system Beagle Dogs
CONDITION: both sexes, beagle, dog, po, 10 mg/kg, Plasma concentration of EX-2/CH2101
EXPERIMENTAL_READOUT: concentration at 1 hr
Please make sure the unit comes right after the number.

Field concentration at 1 hr (entry CC(=O)ONc1ccn([C@@H]2O[C@H](CO)[C@@H](O)[C@H]2O)c(=O)n1 ) reads 12.2 ng/mL

###

PROCEDURE_TEXT: in vivo
Design: species or system Beagle Dogs
CONDITION: male, beagle, dog, po, 10 mg/kg, Tmax of EX-2/CH2101
EXPERIMENTAL_READOUT: Tmax (min)
Output spec: scalar in min, unitless text.

Field Tmax (entry CC(=O)ONc1ccn([C@@H]2O[C@H](CO)[C@@H](O)[C@H]2O)c(=O)n1 [EX-2] ) reads 15

###

PROCEDURE_TEXT: in vivo
Design: species or system Beagle Dogs
CONDITION: both sexes, beagle, dog, po, 22 mg/kg, Plasma concentration of CH2107 (Molnupiravir)
Description: Example 174: Pharmacokinetic Study of EX-2 (CH2101), Molnupiravir (CH2017) and its Metabolite NHC (CH2018) Following a Single PO Administration of EX-2 (CH2101) or Molnupiravir (CH2017) in Male and Female Beagle Dogs Both test compounds were prepared in 1% methyl cellulose (400 cps, SIGMA, SLCF9694) solution in purified water. […]
EXPERIMENTAL_READOUT: concentration at 2 hr (ng/mL)
Output spec: scalar in ng/mL, unitless text.

Field concentration at 2 hr (entry CC(C)C(=O)OC[C@H]1O[C@@H](n2ccc(NO)nc2=O)[C@H](O)[C@@H]1O [Molnupiravir] ) reads 28.2

###

PROCEDURE_TEXT: in vivo
Design: species or system Beagle Dogs
CONDITION: male, beagle, dog, po, 22 mg/kg, Plasma concentration of CH2107 (Molnupiravir)
EXPERIMENTAL_READOUT: concentration at 0.25 hr (ng/mL)
Output spec: scalar in ng/mL, unitless text.

Field concentration at 0.25 hr (entry CC(C)C(=O)OC[C@H]1O[C@@H](n2ccc(NO)nc2=O)[C@H](O)[C@@H]1O [Molnupiravir] ) reads 1450

###

PROCEDURE_TEXT: in vivo
Parameters: species or system Beagle Dogs
CONDITION: both sexes, beagle, dog, po, 10 mg/kg, AUClast of EX-2/CH2101
EXPERIMENTAL_READOUT: AUC(0-t) (ng·h/mL)
Output spec: scalar in ng·h/mL, unitless text.

Field AUC(0-t) (entry CC(=O)ONc1ccn([C@@H]2O[C@H](CO)[C@@H](O)[C@H]2O)c(=O)n1 ) reads 5.07

###

PROCEDURE_TEXT: in vivo
Design: species or system Beagle Dogs
CONDITION: male, beagle, dog, po, 20 mg/kg, Plasma concentration of EX-2/CH2101
EXPERIMENTAL_READOUT: concentration at 0.5 hr (ng/mL)
Output spec: scalar in ng/mL, unitless text.

Field concentration at 0.5 hr (entry CC(=O)ONc1ccn([C@@H]2O[C@H](CO)[C@@H](O)[C@H]2O)c(=O)n1 ) reads 10.5

###

PROCEDURE_TEXT: in vivo
Design: species or system Beagle Dogs
CONDITION: female, beagle, dog, po, 10 mg/kg, T1/2 of EX-1/NHC/CH2018
Experimental: Example 174: Pharmacokinetic Study of EX-2 (CH2101), Molnupiravir (CH2017) and its Metabolite NHC (CH2018) Following a Single PO Administration of EX-2 (CH2101) or Molnupiravir (CH2017) in Male and Female Beagle Dogs Both test compounds were prepared in 1% methyl cellulose (400 cps, SIGMA, SLCF9694) solution in purified water. […]
EXPERIMENTAL_READOUT: half-life
Please make sure the unit comes right after the number.

Field half-life (entry O=c1nc(NO)ccn1[C@@H]1O[C@H](CO)[C@@H](O)[C@H]1O ) reads 76.8 min

###

PROCEDURE_TEXT: in vivo
Parameters: species or system Beagle Dogs
CONDITION: female, beagle, dog, po, 10 mg/kg, Plasma concentration of EX-2/CH2101
Description: Example 174: Pharmacokinetic Study of EX-2 (CH2101), Molnupiravir (CH2017) and its Metabolite NHC (CH2018) Following a Single PO Administration of EX-2 (CH2101) or Molnupiravir (CH2017) in Male and Female Beagle Dogs Both test compounds were prepared in 1% methyl cellulose (400 cps, SIGMA, SLCF9694) solution in purified water. […]
EXPERIMENTAL_READOUT: concentration at 0.25 hr

Field concentration at 0.25 hr (entry CC(=O)ONc1ccn([C@@H]2O[C@H](CO)[C@@H](O)[C@H]2O)c(=O)n1 ) reads 14 ng/mL

###

PROCEDURE_TEXT: in vivo
Parameters: species or system Beagle Dogs
CONDITION: both sexes, beagle, dog, po, 22 mg/kg, Plasma concentration of CH2107 (Molnupiravir)
Procedure: Example 174: Pharmacokinetic Study of EX-2 (CH2101), Molnupiravir (CH2017) and its Metabolite NHC (CH2018) Following a Single PO Administration of EX-2 (CH2101) or Molnupiravir (CH2017) in Male and Female Beagle Dogs Both test compounds were prepared in 1% methyl cellulose (400 cps, SIGMA, SLCF9694) solution in purified water. […]
EXPERIMENTAL_READOUT: concentration at 6 hr (ng/mL)
Output spec: scalar in ng/mL, unitless text.

Field concentration at 6 hr (entry CC(C)C(=O)OC[C@H]1O[C@@H](n2ccc(NO)nc2=O)[C@H](O)[C@@H]1O ) reads 5.45
